# TGI values compiled below
- Tested on: HCC-2998 colon
- experiment.notes: NCI tumour cell line growth inhibition, 48 h
experimental.readout: TGI

structure_as_smiles=C[C@@]12[Se]c3ccccc3[C@]1(C)[Se]c1ccccc12 experimental_readout=TGI test_value="> 100 µM"
structure_as_smiles=CN1CCC(n2cnc(-c3ccc(F)cc3)c2-c2ccnc(Nc3ccccc3)n2)CC1 experimental_readout=TGI test_value="> 25 µM"
structure_as_smiles=O=C(O)c1ccccc1C(=O)Nc1cc2c(cc1Br)-c1ccccc1C2=O experimental_readout=TGI test_value="58 µM"
structure_as_smiles=O=C(/C=C/c1ccc(O)c(O)c1)O[C@H]1CCCC[C@@H]1OC(=O)/C=C/c1ccc(O)c(O)c1 experimental_readout=TGI test_value="33.7 µM"
structure_as_smiles=O=C1CNc2cc(N3CCCCC3)ccc2N1 experimental_readout=TGI test_value="> 100 µM"
structure_as_smiles=CCOC(=O)C1=C(Nc2cccc3ccccc23)OCC1=O experimental_readout=TGI test_value="> 100 µM"
structure_as_smiles=COc1ccc(/C=C2/C(=O)N(/C=C3\C(=O)Oc4ccccc4C3=O)C(=NC(C)=O)N2C)cc1OC experimental_readout=TGI test_value="> 100 µM"
structure_as_smiles=CS(=O)(=O)Nc1cccc(-c2ccc3ncnc(Nc4cncc(Cl)c4)c3c2)c1 experimental_readout=TGI test_value="5.27 µM"

----------
- Tested on: DMS 273 small cell lung
- experiment.notes: NCI tumour cell line growth inhibition, 48 h
experimental.readout: TGI

compound="O[C@]12c3ccccc3C1CCCC2N1CCOCC1 (stereo partly drawn)" system="DMS 273 small cell lung" experimental_readout=TGI test_value="> 100 µM"
compound=CCOC(=O)C1=C(Nc2cccc3ccccc23)OCC1=O system="DMS 273 small cell lung" experimental_readout=TGI test_value="> 100 µM"
compound=Cc1ccc([N+](=O)[O-])cc1NC(=O)/C(CC(=O)c1sc(C(N)=S)nc1C)=N\N system="DMS 273 small cell lung" experimental_readout=TGI test_value="> 100 µM"

----------
# TGI values compiled below
- Test system: EKVX NSCLC
- experiment.notes: NCI tumour cell line growth inhibition, 48 h
experimental.readout: TGI

molecule="C/C(=N\\NC(N)=S)C(CN1CCCCC1)C(C1=C(O)c2ccccc2OC1)c1ccccc1 (stereo not given)" test_value="> 100 µM"
molecule=CN(C)C(=S)/N=C(\N)N(C)C test_value="> 100 µM"
molecule=CC(=O)OCc1ncccc1C(OC(C)=O)OC(C)=O test_value="> 100 µM"
molecule=Cc1cc(=O)[nH]c(S(=O)(=O)NC(=O)Nc2cccc(Cl)c2)n1 test_value="> 100 µM"
molecule=N#Cc1cc2c(=S)[nH]c(=S)[nH]c2nc1SCc1ccccc1 test_value="> 100 µM"
molecule=COc1ccc(OC)c(-c2nc3sc(C)cn3c2/C=C2\C(=O)N(C)c3ccccc32)c1 test_value="> 100 µM"
molecule=O=c1[nH]nc(Cc2ccc(Cl)cc2)n1CCO test_value="> 100 µM"
molecule=CCOC(=O)/C=C(/C(=O)OCC)n1cc(C)c(=O)[nH]c1=O test_value="15.6 µM"
molecule=CN(CCCN1CCCC1)CCCN(C)C(=O)Cc1ccc(Cl)c(Cl)c1 test_value="62.5 µM"
molecule="O=S(C(c1ccccc1)=P(c1ccccc1)(c1ccccc1)c1ccccc1)c1ccc(Cl)cc1 (stereo not given)" test_value="> 100 µM"
molecule=COc1cc2ccnc(-c3n[nH]c4cc(OC)c(OC)cc34)c2cc1OC test_value="> 100 µM"
molecule="CC(CCCCNC(=O)OC(C)(C)C)NC(=O)NC(C)CCCCNC(=O)OC(C)(C)C (stereo not given)" test_value="> 100 µM"
molecule=COc1ccc(/C=C2/C(=O)N(/C=C3\C(=O)Oc4ccccc4C3=O)C(=NC(C)=O)N2C)cc1OC test_value="> 100 µM"
molecule=COc1c(OC)c(OC)c2c(=O)c(OC)c(-c3ccc4c(c3)OCO4)oc2c1OC test_value="> 100 µM"
molecule=COc1cc(-c2cn(-c3ccc(F)cc3)c(=O)[nH]2)cc(OC)c1OC test_value="> 100 µM"
molecule=CCCCCC/C=C\CCCCCCCCCc1cccc(OC)c1O test_value="> 100 µM"
molecule=C#C[C@@H](OC(=O)c1ccc([N+](=O)[O-])cc1)[C@@H]1C[C@H]2O[C@@H]([C@H](C/C=C/CC)OC(=O)c3ccc([N+](=O)[O-])cc3)C[C@H]2O1 test_value="> 100 µM"
molecule="CCC1C[N+]2=C(c3cc(OC)c(OC)cc3CC2)c2c1cc1n2CCc2cc(OC)c(OC)cc2-1 (stereo not given)" test_value="> 100 µM"
molecule="CN(C(=O)C12C3(C(=O)O)C4C5(C(=O)O)C3C1(C(=O)O)C5C42C(=O)O)C(C)(C)C (stereo not given)" test_value="> 100 µM"
molecule=NCCNc1nc2ccc(F)cc2c2c(=O)c3cc(F)ccc3sc12 test_value="3.95 µM"

----------
- System: ACHN renal
- experiment.notes: NCI tumour cell line growth inhibition, 48 h
# TGI values compiled below
experimental.readout: TGI

compound=Nc1csc(-c2scc3c2OCCO3)c1N test_value="> 100 µM"
compound=CCCCCC/C=C\CCCCCCCCCc1cccc(OC)c1O test_value="> 100 µM"
compound=C=CC(=O)OCCCS(=O)(=O)[O-].C=CC(=O)OCCCS(=O)(=O)[O-].NC1CCCCC1N.[Pt+4] test_value="> 25 µM"
compound=CN(C)c1ccc(C2=C([O-])c3cc(-[n+]4ccccc4)ccc3C2=O)cc1 test_value="> 100 µM"
compound="Cc1ccc([N+](=O)[O-])cc1S(=O)(=O)Nc1ccc(C2=NN(C(=O)c3ccccc3)C(c3ccccc3O)C2)cc1 (stereo not given)" test_value="47.8 µM"

----------
- Test system: TK-10 renal
- experiment.notes: NCI tumour cell line growth inhibition, 48 h
# TGI values compiled below
experimental.readout: TGI

molecule="CCCCSCCC(N)P(=O)(O)O (stereo unspecified)" experimental_readout=TGI test_value="> 100 µM"
molecule=CCC1=NC(N/N=C/c2ccco2)=N/C1=C\c1ccco1 experimental_readout=TGI test_value="> 100 µM"
molecule="C=C(C)C1Cc2cc(C(C)=O)ccc2O1 (stereo unspecified)" experimental_readout=TGI test_value="> 100 µM"
molecule="CCOC(=O)CC1C(CNC(=O)NC)OC(n2cnc3c(NC(=O)Nc4ccccc4)ncnc32)C1O[Si](C)(C)C(C)(C)C (stereo unspecified)" experimental_readout=TGI test_value="40.5 µM"
molecule=O=C(Cc1ccc(-c2ccc(OCCN3CCOCC3)cc2)cn1)NCc1ccccc1 experimental_readout=TGI test_value="> 100 µM"
molecule="CC(O)/C=C/C1OC(=O)CC1Nc1ccc(C=O)cc1 (stereo unspecified)" experimental_readout=TGI test_value="> 100 µM"

----------
- Test system: SF-295 CNS
- experiment.notes: NCI tumour cell line growth inhibition, 48 h
experimental.readout: TGI

molecule=Cc1cccc(/C=N/N=C(\N)NO)n1 test_value="> 100 µM"
molecule=COc1ccccc1NC(=O)C1=C(C)NC(C)=C(C(=O)Nc2ccccc2OC)C1c1ccc(C2C(C(=O)Nc3ccccc3OC)=C(C)NC(C)=C2C(=O)Nc2ccccc2OC)cc1 test_value="6.28 µM"
molecule=O=[N+]([O-])c1ccc2nc(/C=C(\O)c3ccccc3)c(NC34CC5CC(CC(C5)C3)C4)nc2c1 test_value="> 10 µM"
molecule=CN(C)CCSC(=Nc1ccccc1)n1cccc1 test_value="> 100 µM"
molecule=N#Cc1cc2c(=S)[nH]c(=S)[nH]c2nc1SCc1ccccc1 test_value="> 100 µM"
molecule="CN(C(=O)C12C3(C(=O)O)C4C5(C(=O)O)C3C1(C(=O)O)C5C42C(=O)O)C(C)(C)C (centres undefined)" test_value="> 100 µM"
molecule=COc1ccc2c3c([nH]c2c1)[C@H](C=C(C)C)N1C(=O)[C@@H]2CCCN2C(=O)[C@@H]1C3 test_value="> 100 µM"
molecule="C=C(C)C1Cc2cc(C(C)=O)ccc2O1 (centres undefined)" test_value="> 100 µM"
molecule=Oc1ccc(Cl)cc1C1=Nn2c(COc3ccc4c(c3)CCCC4)nnc2SC1 test_value="29.7 µM"

----------
# TGI values compiled below
- Test system: COLO 205 colon
- experiment.notes: NCI tumour cell line growth inhibition, 48 h
experimental.readout: TGI

compound=Clc1ccc(C2=Cc3nc2c(-c2ccccc2)c2ccc([nH]2)c(-c2ccccc2)c2nc(c(-c4ccccc4)c4ccc([nH]4)c3-c3ccccc3)C=C2)cc1 test_value="> 62.5 µM"
compound=C=C(CN(C)C)C(=O)c1ccccc1Cl test_value="29.3 µM"
compound="COc1ccc(C2S/C(=C\\c3ccc([N+](=O)[O-])cc3)C(=O)N2NC(=O)Cc2ccccc2)cc1 (centres undefined)" test_value="> 100 µM"
compound=COc1cc(-c2cn(-c3ccc(F)cc3)c(=O)[nH]2)cc(OC)c1OC test_value="> 100 µM"
compound=O=[N+]([O-])c1ccc2nc(/C=C(\O)c3ccccc3)c(NC34CC5CC(CC(C5)C3)C4)nc2c1 test_value="> 10 µM"
compound=COc1ccc(-n2nc(C(=O)NCC(=O)Nc3nc4cc(OC)ccc4s3)c3ccccc3c2=O)cc1 test_value="3.89 µM"
compound="c1ccc(C[N+]23C(CC[C@H]2c2ccccc2)CC[C@H]3c2ccccc2)cc1 (some centres undefined)" test_value="31.2 µM"
compound=COc1cccc(C=C(C#N)C#N)c1OC test_value="> 100 µM"
compound="COc1cc([N+](=O)[O-])cc2c1NC(=O)C2(C)SC (centres undefined)" test_value="> 100 µM"
